Below are pIC50 measurements against Epidermal growth factor receptor (Homo sapiens, UniProt P00533) drawn from the literature.
pIC50 is defined as minus the log10 of a concentration measured in mol/L.

Record excerpt, results attached:
Cc1ccc(Nc2ncnc3cc4oc(=O)n(CCCN5CCOCC5)c4cc23)cc1: 7.17
COc1cc2c(Nc3ccc(NC(=O)c4ccc(C)cc4)cc3)ncnc2cc1OCCCN1CCN(C)CC1: 6.16

Turning to the following compound.
Query block: Reported pIC50 for Epidermal growth factor receptor (Homo sapiens, UniProt P00533), given CCOC(=O)/C=C/C(=O)Cc1ccc2ncnc(Nc3cccc(Br)c3)c2c1 ?
Result block: 8.57
